Target: Receptor-interacting serine/threonine-protein kinase 1 (Homo sapiens, UniProt Q13546)
Sequence (Q13546 whole entry): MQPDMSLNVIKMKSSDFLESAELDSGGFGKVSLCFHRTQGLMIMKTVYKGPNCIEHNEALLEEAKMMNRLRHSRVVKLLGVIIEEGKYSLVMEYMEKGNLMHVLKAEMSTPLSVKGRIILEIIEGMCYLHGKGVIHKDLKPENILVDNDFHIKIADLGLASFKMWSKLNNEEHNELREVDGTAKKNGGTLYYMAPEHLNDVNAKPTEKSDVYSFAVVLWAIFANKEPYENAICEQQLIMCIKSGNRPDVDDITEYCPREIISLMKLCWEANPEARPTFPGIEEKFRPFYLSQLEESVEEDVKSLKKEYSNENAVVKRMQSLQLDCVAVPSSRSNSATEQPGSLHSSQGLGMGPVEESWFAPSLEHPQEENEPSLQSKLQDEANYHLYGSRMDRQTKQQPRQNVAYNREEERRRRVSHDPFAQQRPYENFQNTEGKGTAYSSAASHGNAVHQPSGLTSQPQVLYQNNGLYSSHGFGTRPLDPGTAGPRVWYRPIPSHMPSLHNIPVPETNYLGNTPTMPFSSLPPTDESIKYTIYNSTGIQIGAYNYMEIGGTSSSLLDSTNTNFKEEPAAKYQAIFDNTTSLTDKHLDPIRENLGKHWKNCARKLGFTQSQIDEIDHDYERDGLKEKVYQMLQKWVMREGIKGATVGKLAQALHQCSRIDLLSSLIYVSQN

{"compound": "O=C(c1nc2n(n1)CCOC2c1ccccc1)N1CC(F)C1 (racemic)", "Ki / µM": 2.1}

Source of measurements: ChEMBL document CHEMBL5728584
